target: PD-1-Ig binding to PD-L1-TVMV-His (PD-L1-His) (Homo sapiens, UniProt Q9NZQ7); construct: hPDL1(19-239)-TVMV-His; TVMV protease cleavage site (C); assay: PD-1/PD-L1 Homogenous Time-Resolved Fluorescence (HTRF) binding assay; conditions: PD-1-Ig (20 nM)/PD-L1-His (10 nM), range classes
Sequence (Q9NZQ7 with tags, fused parts or gaps): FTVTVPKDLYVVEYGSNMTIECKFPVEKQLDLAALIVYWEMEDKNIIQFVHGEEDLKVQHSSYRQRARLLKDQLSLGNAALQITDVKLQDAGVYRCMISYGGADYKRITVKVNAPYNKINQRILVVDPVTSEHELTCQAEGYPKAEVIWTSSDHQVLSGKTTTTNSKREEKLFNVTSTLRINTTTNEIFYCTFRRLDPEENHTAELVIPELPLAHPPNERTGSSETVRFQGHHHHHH
Bridge positions count the residues as written; N and C are the ends. Square brackets hold non-standard residues; d marks the D form. Peptide text beside a SMILES is read from it. * marks the point of attachment. ξ: configuration not given here. Hyp = O=C(O)[C@@H]1C[C@@H](O)CN1; ξW = NC(Cc1c[nH]c2ccccc12)C(=O)O; NMeNle = CCCC[C@H](NC)C(=O)O; NMeA = CN[C@@H](C)C(=O)O; Dap = NC[C@H](N)C(=O)O; NHCH2cPr = C1CC1CN*; X11 = OC1CCC(N*)CC1
Measured parameter: IC50

{"Compound": "CCCC[C@H]1C(=O)N(C)[C@@H](CCCC)C(=O)N[C@@H](CC(C)C)C(=O)N[C@H](C(=O)NCC(=O)NC2CCC(O)CC2)CSCC(=O)N[C@@H](Cc2ccc(O)cc2)C(=O)N(C)[C@@H](C)C(=O)N[C@@H](CC(N)=O)C(=O)N2CCC[C@H]2C(=O)N[C@@H](CN)C(=O)N[C@@H](CC(C)C)C(=O)N2C[C@H](O)C[C@H]2C(=O)N[C@@H](Cc2c[nH]c3ccccc23)C(=O)NCC(=O)NC(Cc2c[nH]c3ccccc23)C(=O)N1C (some centres unmarked) [Example 13106] ({CH2CO}-Y[NMeA]NP[Dap]L[Hyp]WG[ξW][NMeNle][NMeNle]LCG-X11; thioether N-14)", "Measured parameter": "IC50", "Reported measurement": "10 to 60 nM"}

Next item in the queue.
*Q* Sample CCCC[C@H]1C(=O)N(C)[C@@H](CCCC)C(=O)N[C@@H](CC(C)C)C(=O)N[C@H](C(=O)NCC(=O)NCC2CC2)CSCC(=O)N[C@@H](Cc2ccc(O)cc2)C(=O)N(C)[C@@H](C)C(=O)N[C@@H](CC(N)=O)C(=O)N2CCC[C@H]2C(=O)N[C@@H](CN)C(=O)N[C@@H](CC(C)C)C(=O)N2C[C@H](O)C[C@H]2C(=O)N[C@@H](Cc2c[nH]c3ccccc23)C(=O)NCC(=O)NC(Cc2c[nH]c3ccccc23)C(=O)N1C (some centres unmarked) [Example 13104] ({CH2CO}-Y[NMeA]NP[Dap]L[Hyp]WG[ξW][NMeNle][NMeNle]LCG-NHCH2cPr; thioether N-14) — what was its IC50?
*A* 10 to 60 nM

###

molecular target: PD-1-Ig binding to PD-L1-TVMV-His (PD-L1-His) (Homo sapiens, UniProt Q9NZQ7); construct: hPDL1(19-239)-TVMV-His; TVMV protease cleavage site (C); test: PD-1/PD-L1 Homogenous Time-Resolved Fluorescence (HTRF) binding assay; details: PD-1-Ig (20 nM)/PD-L1-His (10 nM), range classes
Bridge positions count the residues as written; N and C are the ends. Square brackets hold non-standard residues; d marks the D form. Peptide text beside a SMILES is read from it. * marks the point of attachment. ξ: configuration not given here. Hyp = O=C(O)[C@@H]1C[C@@H](O)CN1; ξW = NC(Cc1c[nH]c2ccccc12)C(=O)O; NMeNle = CCCC[C@H](NC)C(=O)O; NMeA = CN[C@@H](C)C(=O)O; Dap = NC[C@H](N)C(=O)O; NHAllyl = C=CCN*
Measured parameter: IC50

*Q* Sample C=CCNC(=O)CNC(=O)[C@@H]1CSCC(=O)N[C@@H](Cc2ccc(O)cc2)C(=O)N(C)[C@@H](C)C(=O)N[C@@H](CC(N)=O)C(=O)N2CCC[C@H]2C(=O)N[C@@H](CN)C(=O)N[C@@H](CC(C)C)C(=O)N2C[C@H](O)C[C@H]2C(=O)N[C@@H](Cc2c[nH]c3ccccc23)C(=O)NCC(=O)NC(Cc2c[nH]c3ccccc23)C(=O)N(C)[C@@H](CCCC)C(=O)N(C)[C@@H](CCCC)C(=O)N[C@@H](CC(C)C)C(=O)N1 (stereo partly shown) [Example 13097] ({CH2CO}-Y[NMeA]NP[Dap]L[Hyp]WG[ξW][NMeNle][NMeNle]LCG-NHAllyl; thioether N-14) — what was its IC50?
*A* 10 to 60 nM

###

target: PD-1-Ig binding to PD-L1-TVMV-His (PD-L1-His) (Homo sapiens); construct: hPDL1(19-239)-TVMV-His; TVMV protease cleavage site (C); test: PD-1/PD-L1 Homogenous Time-Resolved Fluorescence (HTRF) binding assay; settings: PD-1-Ig (20 nM)/PD-L1-His (10 nM), range classes
Bridge positions count the residues as written; N and C are the ends. Square brackets hold non-standard residues; d marks the D form. Peptide text beside a SMILES is read from it. * marks the point of attachment. ξ: configuration not given here. Hyp = O=C(O)[C@@H]1C[C@@H](O)CN1; ξW = NC(Cc1c[nH]c2ccccc12)C(=O)O; NMeNle = CCCC[C@H](NC)C(=O)O; NMeA = CN[C@@H](C)C(=O)O; Dap = NC[C@H](N)C(=O)O; X12 = OCC1CCN(*)CC1
Measured parameter: IC50

*Q* Sample CCCC[C@H]1C(=O)N(C)[C@@H](CCCC)C(=O)N[C@@H](CC(C)C)C(=O)N[C@H](C(=O)NCC(=O)N2CCC(CO)CC2)CSCC(=O)N[C@@H](Cc2ccc(O)cc2)C(=O)N(C)[C@@H](C)C(=O)N[C@@H](CC(N)=O)C(=O)N2CCC[C@H]2C(=O)N[C@@H](CN)C(=O)N[C@@H](CC(C)C)C(=O)N2C[C@H](O)C[C@H]2C(=O)N[C@@H](Cc2c[nH]c3ccccc23)C(=O)NCC(=O)NC(Cc2c[nH]c3ccccc23)C(=O)N1C (stereo partly shown) [Example 13111] ({CH2CO}-Y[NMeA]NP[Dap]L[Hyp]WG[ξW][NMeNle][NMeNle]LCG-X12; thioether N-14) — what was its IC50?
*A* 10 to 60 nM

###

IC50 values, listed per item
Target: PD-1-Ig binding to PD-L1-TVMV-His (PD-L1-His) (Homo sapiens, UniProt Q9NZQ7)
Construct: hPDL1(19-239)-TVMV-His; TVMV protease cleavage site (C)
Experiment: PD-1/PD-L1 Homogenous Time-Resolved Fluorescence (HTRF) binding assay
Settings: PD-1-Ig (20 nM)/PD-L1-His (10 nM), range classes
Excerpt: Methods for Testing the Ability of Macrocyclic Peptides to Compete for the Binding of PD-1 to PD-L1 Using Homogenous Time-Resolved Fluorescence (HTRF) Binding Assays The ability of the macrocyclic peptides of the present disclosure to bind to PD-L1 was investigated using a PD-1/PD-L1 Homogenous Time-Resolved Fluorescence (HTRF) binding assay. Homogenous Time-Resolved Fluorescence (HTRF) Assays of Binding of Soluble PD-1 to Soluble PD-L1. […]
Bridge positions count the residues as written; N and C are the ends. Square brackets hold non-standard residues; d marks the D form. Peptide text beside a SMILES is read from it. * marks the point of attachment. ξ: configuration not given here. Hyp = O=C(O)[C@@H]1C[C@@H](O)CN1; ξW = NC(Cc1c[nH]c2ccccc12)C(=O)O; NMeNle = CCCC[C@H](NC)C(=O)O; NMeA = CN[C@@H](C)C(=O)O; Dap = NC[C@H](N)C(=O)O; X13 = CS(=O)(=O)CCN*; NHCH2CH2OH = OCCN*; Sar = CNCC(=O)O; NHBu = CCCCN*

{"Molecule": "CCCC[C@H]1C(=O)N(C)[C@@H](CCCC)C(=O)N[C@@H](CC(C)C)C(=O)N[C@H](C(=O)N(C)CC(N)=O)CSCC(=O)N[C@@H](Cc2ccc(O)cc2)C(=O)N(C)[C@@H](C)C(=O)N[C@@H](CC(N)=O)C(=O)N2CCC[C@H]2C(=O)N[C@@H](CN)C(=O)N[C@@H](CC(C)C)C(=O)N2C[C@H](O)C[C@H]2C(=O)N[C@@H](Cc2c[nH]c3ccccc23)C(=O)NCC(=O)N[C@@H](Cc2c[nH]c3ccccc23)C(=O)N1C [Example 13090] ({CH2CO}-Y[NMeA]NP[Dap]L[Hyp]WGW[NMeNle][NMeNle]LC[Sar]-NH2; thioether N-14)", "Assayed system": "PD-1-Ig binding to PD-L1-TVMV-His (PD-L1-His) (Homo sapiens, UniProt Q9NZQ7)", "Reported measurement": "4 to 9.9 nM"}
{"Molecule": "CCCCNC(=O)CNC(=O)[C@@H]1CSCC(=O)N[C@@H](Cc2ccc(O)cc2)C(=O)N(C)[C@@H](C)C(=O)N[C@@H](CC(N)=O)C(=O)N2CCC[C@H]2C(=O)N[C@@H](CN)C(=O)N[C@@H](CC(C)C)C(=O)N2C[C@H](O)C[C@H]2C(=O)N[C@@H](Cc2c[nH]c3ccccc23)C(=O)NCC(=O)NC(Cc2c[nH]c3ccccc23)C(=O)N(C)[C@@H](CCCC)C(=O)N(C)[C@@H](CCCC)C(=O)N[C@@H](CC(C)C)C(=O)N1 (some centres unmarked) [Example 13100] ({CH2CO}-Y[NMeA]NP[Dap]L[Hyp]WG[ξW][NMeNle][NMeNle]LCG-NHBu; thioether N-14)", "Assayed system": "PD-1-Ig binding to PD-L1-TVMV-His (PD-L1-His) (Homo sapiens, UniProt Q9NZQ7)", "Reported measurement": "10 to 60 nM"}
{"Molecule": "CCCC[C@H]1C(=O)N(C)[C@@H](CCCC)C(=O)N[C@@H](CC(C)C)C(=O)N[C@H](C(=O)NCC(=O)NCCS(C)(=O)=O)CSCC(=O)N[C@@H](Cc2ccc(O)cc2)C(=O)N(C)[C@@H](C)C(=O)N[C@@H](CC(N)=O)C(=O)N2CCC[C@H]2C(=O)N[C@@H](CN)C(=O)N[C@@H](CC(C)C)C(=O)N2C[C@H](O)C[C@H]2C(=O)N[C@@H](Cc2c[nH]c3ccccc23)C(=O)NCC(=O)NC(Cc2c[nH]c3ccccc23)C(=O)N1C (some centres unmarked) [Example 13116] ({CH2CO}-Y[NMeA]NP[Dap]L[Hyp]WG[ξW][NMeNle][NMeNle]LCG-X13; thioether N-14)", "Assayed system": "PD-1-Ig binding to PD-L1-TVMV-His (PD-L1-His) (Homo sapiens, UniProt Q9NZQ7)", "Reported measurement": "10 to 60 nM"}
{"Molecule": "CCCC[C@H]1C(=O)N(C)[C@@H](CCCC)C(=O)N[C@@H](CC(C)C)C(=O)N[C@H](C(=O)NCC(=O)NCCO)CSCC(=O)N[C@@H](Cc2ccc(O)cc2)C(=O)N(C)[C@@H](C)C(=O)N[C@@H](CC(N)=O)C(=O)N2CCC[C@H]2C(=O)N[C@@H](CN)C(=O)N[C@@H](CC(C)C)C(=O)N2C[C@H](O)C[C@H]2C(=O)N[C@@H](Cc2c[nH]c3ccccc23)C(=O)NCC(=O)NC(Cc2c[nH]c3ccccc23)C(=O)N1C (some centres unmarked) [Example 13095] ({CH2CO}-Y[NMeA]NP[Dap]L[Hyp]WG[ξW][NMeNle][NMeNle]LCG-NHCH2CH2OH; thioether N-14)", "Assayed system": "PD-1-Ig binding to PD-L1-TVMV-His (PD-L1-His) (Homo sapiens, UniProt Q9NZQ7)", "Reported measurement": "10 to 60 nM"}

Next item in the queue.
*Q* Sample CCCC[C@H]1C(=O)N(C)[C@@H](CCCC)C(=O)N[C@@H](CC(C)C)C(=O)N[C@H](C(=O)N(C)CC(N)=O)CSCC(=O)N[C@@H](Cc2ccc(O)cc2)C(=O)N(C)[C@@H](C)C(=O)N[C@@H](CC(N)=O)C(=O)N2CCC[C@H]2C(=O)N[C@@H](CN)C(=O)N[C@@H](CC(C)C)C(=O)N2C[C@H](O)C[C@H]2C(=O)N[C@@H](Cc2c[nH]c3ccccc23)C(=O)NCC(=O)N[C@@H](Cc2c[nH]c3ccccc23)C(=O)N1C [Example 13119] ({CH2CO}-Y[NMeA]NP[Dap]L[Hyp]WGW[NMeNle][NMeNle]LC[Sar]-NH2; thioether N-14) — what was its IC50?
*A* 10 to 60 nM
